- System: Puccinia triticina
- assay-explanation: Wheat Brown Rust fungicidal activity (PUCCRT)
- Type: in vivo
- condition: Puccinia triticina, 72 h, 3 Day Curative, rate 100 ppm, read-out: Disease control PUCCRT 3DC
Measured pest or weed control at 100 ppm accompanies every entry in the list below.

> print(dat)
                               query.smiles      result
1  COc1ccnc(C(=O)N[C@H]2COC[C@H](CCC(C)C)[C@@H](OC(=O)C3CC3)[C@H](C)OC2=O)c1OCOC(C)=O  80 to 100%
2  COc1ccnc(C(=O)N[C@H]2COC[C@H](Cc3ccc(C)cc3)[C@@H](Oc3ccccc3)[C@H](C)OC2=O)c1OC(C)=O  80 to 100%
3  COc1ccnc(C(=O)N[C@H]2COC[C@H](Cc3ccc(C(F)(F)F)cc3)[C@@H](OC3CCCC3)[C@H](C)OC2=O)c1OCOC(C)=O  80 to 100%
4  COc1ccnc(C(=O)N[C@H]2COC[C@H](Cc3ccc(C)cc3)[C@@H](OCCCC(F)(F)F)[C@H](C)OC2=O)c1O    0 to 80%
5  COc1ccnc(C(=O)N[C@H]2COC[C@H](Cc3ccc(C(F)(F)F)cc3)[C@@H](OCC(C)C)[C@H](C)OC2=O)c1OC(C)=O  80 to 100%
6  COc1ccnc(C(=O)N[C@H]2COC[C@H](Cc3ccc(F)cc3)[C@@H](OCCCC(F)(F)F)[C@H](C)OC2=O)c1OCOC(C)=O  80 to 100%

According to the records, this compound `COc1ccnc(C(=O)N[C@H]2COC[C@H](Cc3cccc4ccccc34)[C@@H](OC3CCCC3)[C@H](C)OC2=O)c1OCOC(C)=O` displays pest or weed control at 100 ppm of 80 to 100%

According to the records, this compound `COc1ccnc(C(=O)N[C@H]2COC[C@H](CCc3ccccc3)[C@@H](Oc3ccc(C)cc3)[C@H](C)OC2=O)c1O` displays pest or weed control at 100 ppm of 0 to 80%

According to the records, this compound `COc1ccnc(C(=O)N[C@H]2COC[C@H](CC(F)(F)F)[C@@H](OCC(C)C)[C@H](C)OC2=O)c1O` displays pest or weed control at 100 ppm of 0 to 80%

According to the records, this compound `COc1ccnc(C(=O)N[C@H]2COC[C@H](Cc3ccc(C(F)(F)F)cc3)[C@@H](OCC(C)C)[C@H](C)OC2=O)c1O` displays pest or weed control at 100 ppm of 0 to 80%

According to the records, this compound `COc1ccnc(C(=O)N[C@H]2COC[C@H](Cc3ccc(C)cc3)[C@@H](OC(=O)C3CC3)[C@H](C)OC2=O)c1O` displays pest or weed control at 100 ppm of 0 to 80%

According to the records, this compound `CCCO[C@@H]1[C@@H](Cc2ccc(C(F)(F)F)cc2)COC[C@H](NC(=O)c2nccc(OC)c2OCOC(C)=O)C(=O)O[C@H]1C` displays pest or weed control at 100 ppm of 80 to 100%

According to the records, this compound `COc1ccnc(C(=O)N[C@H]2COC[C@H](CC3CCCC3)[C@@H](OCC(C)C)[C@H](C)OC2=O)c1OC(C)=O` displays pest or weed control at 100 ppm of 80 to 100%

According to the records, this compound `COc1ccnc(C(=O)N[C@H]2COC[C@H](Cc3ccc(Cl)cc3Cl)[C@@H](OC(=O)C(C)C)[C@H](C)OC2=O)c1OCOC(=O)C(C)C` displays pest or weed control at 100 ppm of 80 to 100%

According to the records, this compound `COc1ccnc(C(=O)N[C@H]2COC[C@H](Cc3ccc(F)cc3)[C@@H](OC3CCCC3)[C@H](C)OC2=O)c1OCOC(C)=O` displays pest or weed control at 100 ppm of 80 to 100%

According to the records, this compound `COc1ccnc(C(=O)N[C@H]2COC[C@H](CCC(C)C)[C@@H](Oc3ccc(C)cc3)[C@H](C)OC2=O)c1OC(C)=O` displays pest or weed control at 100 ppm of 80 to 100%

According to the records, this compound `COc1ccnc(C(=O)N[C@H]2COC[C@H](Cc3ccc(C)cc3)[C@@H](OC(=O)C3CC3)[C@H](C)OC2=O)c1OCOC(C)=O` displays pest or weed control at 100 ppm of 80 to 100%

According to the records, this compound `CCCO[C@@H]1[C@@H](Cc2ccc(C(F)(F)F)cc2)COC[C@H](NC(=O)c2nccc(OC)c2OCOC(=O)COCC)C(=O)O[C@H]1C` displays pest or weed control at 100 ppm of 0 to 80%

According to the records, this compound `COc1ccnc(C(=O)N[C@H]2COC[C@H](CCC(C)C)[C@@H](OC(=O)C3CC3)[C@H](C)OC2=O)c1O` displays pest or weed control at 100 ppm of 0 to 80%

According to the records, this compound `COc1ccnc(C(=O)N[C@H]2COC[C@H](Cc3ccc(F)cc3)[C@@H](OC(=O)C(C)C)[C@H](C)OC2=O)c1O` displays pest or weed control at 100 ppm of 80 to 100%

According to the records, this compound `COc1ccnc(C(=O)N[C@H]2COC[C@H](CC3CCCC3)[C@@H](OC(=O)C(C)C)[C@H](C)OC2=O)c1OC(C)=O` displays pest or weed control at 100 ppm of 80 to 100%

According to the records, this compound `COc1ccnc(C(=O)N[C@H]2COC[C@H](Cc3ccc(C)cc3)[C@@H](OC(=O)C(C)C)[C@H](C)OC2=O)c1O` displays pest or weed control at 100 ppm of 80 to 100%

According to the records, this compound `COc1ccnc(C(=O)N[C@H]2COC[C@H](Cc3ccc(F)cc3)[C@@H](OCCCC(F)(F)F)[C@H](C)OC2=O)c1O` displays pest or weed control at 100 ppm of 0 to 80%

According to the records, this compound `COc1ccnc(C(=O)N[C@H]2COC[C@H](Cc3ccc(C)cc3)[C@@H](OC3CCCC3)[C@H](C)OC2=O)c1O` displays pest or weed control at 100 ppm of 0 to 80%

According to the records, this compound `COc1ccnc(C(=O)N[C@H]2COC[C@H](Cc3ccc(C)cc3)[C@@H](OC(=O)C(C)C)[C@H](C)OC2=O)c1OC(C)=O` displays pest or weed control at 100 ppm of 80 to 100%
